Test system: UACC-257 melanoma
Test Method Notes: NCI-60 one-dose screen, 48 h (100 = growth as untreated, 0 = no growth, -100 = all killed)
Condition Parameters: 10 µM unless noted
About 83,000 compounds went through this panel and 20% of them were active in at least one assay; those are over-represented in the sample as a whole. Activity calls are given as the source filed them. The calls were made as follows: active = growth percent below 10; inactive = the rest.

{"columns": ["Molecule", "growth"],
 "data": [
  ["Cn1ccc(=Nc2ccc(NC(=O)c3ccc(N=c4ccn(C)c5ccc([N+](=O)[O-])cc45)cc3)cc2)cc1", "86.9% (inactive)"],
  ["O=C(Nc1ccc(Cl)c(Cl)c1)Nc1ccccc1O", "78.2% (inactive)"],
  ["Cc1cc(Br)c2nsnc2c1[N+](=O)[O-]", "66.9% (inactive)"],
  ["O=C(NNc1ccccc1)OCc1ccccc1", "92.4% (inactive)"],
  ["CCCCCCCCCCCC1N=C(N)N=C(N)N1c1cccc(Br)c1 (stereo not drawn)", "61.3% (inactive)"],
  ["CCCc1cc(=O)oc2c3c(c4c(c12)OC(C)(C)CC4)OC(C)[C@H](C)[C@@H]3O (stereo partly drawn)", "104% (inactive)"],
  ["O=C1C=CC(=O)N1C1CCCCCCCCCCC1", "66.6% (inactive)"],
  ["O=C(Nc1cccc(C(F)(F)F)c1)Oc1ccc(Cl)c2cccnc12", "-60% (active)"],
  ["COC(=O)c1cc([N+](=O)[O-])cc([N+](=O)[O-])c1Cl", "70.4% (inactive)"],
  ["O=[N+]([O-])c1ccc(N2CCN(Cc3ccccc3)CC2)c2c1no[n+]2[O-]", "55.9% (inactive)"],
  ["CCCCCCCCCCCC(=O)OC(C)C(=O)NCCCC (stereo not drawn)", "96.4% (inactive)"],
  ["CCN(CC)CC(O)CNc1ccc(NCC2CO2)c2c1C(=O)c1ccccc1C2=O (stereo not drawn)", "-2.17% (active)"],
  ["Clc1ccccc1C(c1ccccc1)(c1ccccc1)n1ccnc1", "54.4% (inactive)"],
  ["CC(C)(C)c1ccc(CCO)cc1", "97.2% (inactive)"],
  ["CCCCCCCCCCCCSC(=N)N", "14% (inactive)"],
  ["CC(=O)Nc1ccc(C(=O)CCl)cc1", "86% (inactive)"],
  ["O=[N+]([O-])C=C(c1ccccc1)c1ccccc1", "84% (inactive)"],
  ["CCOC(=O)C1=NN(c2ccccc2)C(=O)/C1=C\\N1C(=O)/C(=C/c2cccc(O)c2)SC1=S", "98.3% (inactive)"],
  ["O=C/C=C/c1ccc([N+](=O)[O-])cc1", "97.7% (inactive)"],
  ["CN=C(N)N/N=C(\\c1ccccc1)c1ccc(Br)cc1", "47.2% (inactive)"],
  ["O=C(c1ccccc1)c1cc2ccccc2oc1=O", "96.9% (inactive)"],
  ["CC1(C)CCCC2=C1C(=O)N(SC(Cl)(Cl)Cl)C2=O", "97.2% (inactive)"],
  ["Cn1c(-c2ccccc2)c(/C=C/C2=[N+](C)c3ccccc3C2(C)C)c2ccccc21", "-51.5% (active)"],
  ["Clc1ccc(Cc2nc3ccccc3s2)cc1", "97.7% (inactive)"],
  ["CCN(CC)CC(O)c1cc(-c2ccc(Cl)cc2)nc2cc(Cl)ccc12 (stereo not drawn)", "-59.8% (active)"],
  ["Oc1ccc2ccccc2c1N=Nc1nccs1", "66% (inactive)"],
  ["CN1CCC(c2ccccc2)(c2ccccc2)C(=O)C1", "95% (inactive)"],
  ["N#CC(I)CS(=O)(=O)c1ccccc1 (stereo not drawn)", "73.1% (inactive)"],
  ["CC(=O)C1Cc2ccccc2C1=O (stereo not drawn)", "89.8% (inactive)"],
  ["CN(Cc1ccccc1)c1ccc(SC#N)cc1", "102% (inactive)"],
  ["Oc1ccc(Nc2ccc3ccccc3c2)cc1", "73.7% (inactive)"],
  ["CCc1oc2ccccc2c1C(=O)c1cc(Br)c(O)c(Br)c1", "66.2% (inactive)"],
  ["OC(c1cc(-c2ccc(Cl)cc2)nc2c(Cl)cccc12)C1CCCCN1 (stereo not drawn)", "-77% (active)"],
  ["NC(=S)N/N=C/c1ncccc1O", "18.9% (inactive)"],
  ["CC1CC(C)(C)OB(OC(C)CC(C)(C)OB2OC(C)CC(C)(C)O2)O1 (stereo not drawn)", "94.8% (inactive)"],
  ["Oc1ccc(Cl)cc1C(c1cc(Cl)ccc1O)C(Cl)(Cl)Cl", "72.1% (inactive)"],
  ["O=C1/C(=C/c2ccccn2)CCc2ccccc21", "105% (inactive)"],
  ["COC(=O)c1ccc(=O)c2nc3/c(=C/O)c(O)cc(=O)c3[nH]c12", "5.98% (active)"],
  ["CCOc1ccc(C(CN2CCOCC2)C(C)=O)cc1OC (stereo not drawn)", "90% (inactive)"],
  ["COc1cc(/C=C/C(=O)CC(=O)/C=C/c2ccc(O)c(OC)c2)ccc1O", "53.6% (inactive)"],
  ["O=Nc1ccc2ccccc2c1O", "18.3% (inactive)"],
  ["O=[N+]([O-])CC(O)c1ccccc1 (stereo not drawn)", "88.7% (inactive)"],
  ["OC(Cc1cc(CC(O)(C(F)(F)F)C(F)(F)F)nc(CC(O)(C(F)(F)F)C(F)(F)F)c1)(C(F)(F)F)C(F)(F)F", "-28.3% (active)"],
  ["CCCCCCCCCCCCCCCc1ccc(C(=O)C[n+]2ccccc2)cc1", "-76.3% (active)"],
  ["COc1cc(NCc2ccc3nc(N)nc(N)c3c2C)cc(OC)c1OC (tested in a mixture with another compound)", "23.5% (inactive)"],
  ["Cc1cc(N/N=C/c2ccccn2)nc2ccccc12", "-22.6% (active)"],
  ["CN1CSC(=S)N(Cc2ccccc2)C1", "84.3% (inactive)"],
  ["COC(=O)C(=[N+]=[N-])C(=O)c1ccc([N+](=O)[O-])o1", "61.5% (inactive)"]
]}

Hello, the source for this data is PubChem BioAssay (NCI), in case you need it.
